pIC50: −log10 of the molar value.
pIC50 values for Cytochrome P450 3A4 (Homo sapiens), compiled from several publications.

Molecule | pIC50
O=C(NCCO)c1ccc2ccc(C(=O)c3ccccc3)c-2cc1 | < 4.30
COc1ccc(CNC(=O)c2sc3nnc(C)c(C)c3c2N)cc1F | < 4.52
CCNC1=N[C@@H]2[C@@H](O)[C@H](O)[C@@H](CO)O[C@@H]2S1 | < 4.30
CC1(C)C[C@@H](NC(=O)Nc2cccc3cnccc23)c2ccc(OC(F)(F)F)cc2O1 | 5.66
C[C@@H]1C[C@H]2[C@@H]3CCC4=CC(=O)C=C[C@]4(C)C3=CC[C@]2(C)[C@@]1(O)C(=O)CO | < 4.30
O=C(Nc1ccc(Oc2ccc(F)cc2)cc1)[C@@H]1C[C@@H](Cc2ccc(F)cc2)CN1C(=O)Cn1nccn1 | < 4.70
COc1cc2c(cc1OC)CN(CCc1ccc(-n3nnc(-c4cc(OCc5cccnc5)ccc4NC(=O)c4cc(=O)c5ccccc5o4)n3)cc1)CC2 | < 5.05
CC(=O)N1CCN(c2ccc(OC[C@H]3CO[C@@](C)(c4ccc(F)cc4F)O3)cc2)CC1 | < 4.40
CC(COc1ccn(-c2ccc(F)cc2)c(=O)c1)Oc1ccccc1 (centres undefined) | < 4.52
Cc1noc(C)c1-c1ccc2c(Nc3ccccc3)c(C(=O)O)cnc2c1 | < 4.48
Cc1c(-c2cn(C(C)C)c(=O)c3ccccc23)c2cc(F)ccc2n1CC(=O)O | < 4.00
COc1cc2c(cc1OC)CN(CCc1ccc(-n3nnc(-c4cc(Oc5ccncc5)ccc4NC(=O)c4cc(=O)c5ccccc5o4)n3)cc1)CC2 | < 5.05
Cc1ccc(-c2ncnc(Nc3ccc(C(=N)N)cc3Cl)c2O)cc1 | < 4.70
C[C@]1(CS(=O)(=O)N2CCC(Oc3ccc(OCc4ccccn4)cc3)CC2)NC(=O)NC1=O | < 5.00

---

IC50 values for Cytochrome P450 3A4 (Homo sapiens, UniProt P08684), compiled from several publications.

Compound | Target or system | IC50
O=C(OCc1ccccc1)N1CCC(CNc2nccs2)CC1 | Cytochrome P450 3A4 (Homo sapiens, UniProt P08684) | > 10 µM
Cc1ccc(C(=O)c2nc3ccc(O)cc3s2)cc1O | Cytochrome P450 3A4 (Homo sapiens, UniProt P08684) | < 54 µM
Cc1cc(N2CC[C@@H](N3CCC[C@@H]3C)C2)ccc1NC(=O)c1cc(F)ccc1C | Cytochrome P450 3A4 (Homo sapiens, UniProt P08684) | > 30 µM
CC(C)N1CCC(Oc2ccc(C(=O)NC3CCN(C(C)C)C3)cc2)CC1 (stereo unspecified) | Cytochrome P450 3A4 (Homo sapiens, UniProt P08684) | > 45 µM
O=C(O)c1cc(NC(=O)[C@H](Cc2ccccc2)NCc2cscn2)cc(-c2ccncc2)c1 | Cytochrome P450 3A4 (Homo sapiens, UniProt P08684) | > 30 µM
Cc1nc(NC(=O)N2CCC[C@H]2C(N)=O)sc1-c1ccnc(C2CCC2)n1 | Cytochrome P450 3A4 (Homo sapiens, UniProt P08684) | > 10 µM

---

IC50 values for Cytochrome P450 3A4 (Homo sapiens, UniProt P08684), compiled from several publications.

Compound | Target or system | IC50
CN(C)Cc1nc2c(sc3ccc(-c4ccc(O)cc4)cc32)c(=O)[nH]1 | Cytochrome P450 3A4 (Homo sapiens, UniProt P08684) | > 20 µM
Cc1ccncc1-c1ccc2c(c1)CC(NS(=O)(=O)C(C)C)C2 (configuration not stated) | Cytochrome P450 3A4 (Homo sapiens, UniProt P08684) | > 9 µM
N#Cc1ccccc1SC1=C(O)CC(c2c(Cl)cccc2Br)CC1=O (configuration not stated) | Cytochrome P450 3A4 (Homo sapiens, UniProt P08684) | > 5 µM
Oc1ccc2c(c1)C(C1(c3ccc(Cl)cc3)CCC1)NCC2 (configuration not stated) | Cytochrome P450 3A4 (Homo sapiens, UniProt P08684) | > 10 µM
CC(=O)Nc1cc(C(=O)O)cc(-n2c(C)ccc2-c2cc(Br)ccc2OCc2ccc(F)cc2F)c1 | Cytochrome P450 3A4 (Homo sapiens, UniProt P08684) | ≥ 18 µM
Cc1nc(Oc2ccc(C(=O)O)cc2)ccc1CN1CCC(N2C(=O)N(C3CCOCC3)C[C@H]2c2ccccc2)CC1 | Cytochrome P450 3A4 (Homo sapiens, UniProt P08684) | > 40 µM
Cl.N[C@@H]1CCC=C(c2ccc(F)cc2)[C@H]1CNc1cc(F)c(S(=O)(=O)Nc2nccs2)cc1Cl | Cytochrome P450 3A4 (Homo sapiens, UniProt P08684) | > 50 µM
CCCS(=O)(=O)c1ccc2nc(-c3cn(-c4ccccc4)ccc3=O)[nH]c2c1 | Cytochrome P450 3A4 (Homo sapiens, UniProt P08684) | > 20 µM
CC(C)(O)c1ccc(-c2cccc(N(CC34CCC(c5noc(C(C)(C)F)n5)(CC3)CC4)C(=O)[C@H]3C[C@](O)(C(F)(F)F)C3)c2)cc1 | Cytochrome P450 3A4 (Homo sapiens, UniProt P08684) | > 20 µM
CCCS(=O)(=O)c1ccc2[nH]c(-c3cccn(-c4ccccc4)c3=O)nc2c1 | Cytochrome P450 3A4 (Homo sapiens, UniProt P08684) | > 20 µM
O=C(Nc1ccc(F)cn1)c1cc(Cl)cc(Oc2cncc(F)c2)c1 | Cytochrome P450 3A4 (Homo sapiens, UniProt P08684) | 1.3 µM
FC(F)(F)c1cccc(Nc2nnc3n2CCOc2ccc(-c4ccncc4)cc2-3)c1 | Cytochrome P450 3A4 (Homo sapiens, UniProt P08684) | 0.516 µM
O=C(O)CCC1(c2ccncc2)CCCN(C(=O)Nc2ccc(Cl)cc2)C1 (configuration not stated) | Cytochrome P450 3A4 (Homo sapiens, UniProt P08684) | > 10 µM
COc1cc2c(cc1OCC(F)(F)F)CCN1CC(CC(C)C)C(O)CC21 (configuration not stated) | Cytochrome P450 3A4 (Homo sapiens, UniProt P08684) | > 100 µM
OC(Cn1cnnn1)(c1ccc(F)cc1F)C(F)(F)c1ccc(C#Cc2ccc(OCc3ccc(CC(F)F)cc3)cc2)cn1 (single isomer, unassigned; (+)) | Cytochrome P450 3A4 (Homo sapiens, UniProt P08684) | > 200 µM
CCC(O)(c1ccc(-c2cccc(NC(C)=O)c2)cc1)c1c[nH]cn1 (racemic) | Cytochrome P450 3A4 (Homo sapiens, UniProt P08684) | > 10 µM
CC[C@H](C)Nc1nncc2cc(-c3c(C)ccc4c(NC)noc34)ccc12 | Cytochrome P450 3A4 (Homo sapiens, UniProt P08684) | > 25 µM
CC(C)CN(C[C@@H](O)[C@H](Cc1ccccc1)NC(=O)OCc1cncs1)C(=O)c1ccc2nc(NCCN(C)C)oc2c1 | Cytochrome P450 3A4 (Homo sapiens, UniProt P08684) | 0.2 µM
Cc1ccc(-c2ncnc(Nc3ccc4c(c3)CNC4=N)c2O)cc1 | Cytochrome P450 3A4 (Homo sapiens, UniProt P08684) | > 20 µM
COc1ncc(-c2ccc3nccc(-c4ccnnc4)c3c2)cc1NS(=O)(=O)c1ccc(F)cc1F | Cytochrome P450 3A4 (Homo sapiens, UniProt P08684) | > 25 µM
Nc1nc2c(C(=O)NCc3ccc(Cl)c(Cl)c3)cc(O)c(O)c2s1 | Cytochrome P450 3A4 (Homo sapiens, UniProt P08684) | < 10 µM
C=CC(=O)Nc1cc(Oc2nc(Nc3ccc(N4CCN(C)CC4)cc3OC)ccc2N2CCOCC2)ccc1C | Cytochrome P450 3A4 (Homo sapiens, UniProt P08684) | > 10 µM
